Catalogue of compounds with associated pIC50
- testTarget: tyrosine-specific protein kinase derived from Rous sarcoma virus (src gene pp60^src) (Rous sarcoma virus (strain Schmidt-Ruppin A), UniProt P00524)
- Sequence (P00524 2-526): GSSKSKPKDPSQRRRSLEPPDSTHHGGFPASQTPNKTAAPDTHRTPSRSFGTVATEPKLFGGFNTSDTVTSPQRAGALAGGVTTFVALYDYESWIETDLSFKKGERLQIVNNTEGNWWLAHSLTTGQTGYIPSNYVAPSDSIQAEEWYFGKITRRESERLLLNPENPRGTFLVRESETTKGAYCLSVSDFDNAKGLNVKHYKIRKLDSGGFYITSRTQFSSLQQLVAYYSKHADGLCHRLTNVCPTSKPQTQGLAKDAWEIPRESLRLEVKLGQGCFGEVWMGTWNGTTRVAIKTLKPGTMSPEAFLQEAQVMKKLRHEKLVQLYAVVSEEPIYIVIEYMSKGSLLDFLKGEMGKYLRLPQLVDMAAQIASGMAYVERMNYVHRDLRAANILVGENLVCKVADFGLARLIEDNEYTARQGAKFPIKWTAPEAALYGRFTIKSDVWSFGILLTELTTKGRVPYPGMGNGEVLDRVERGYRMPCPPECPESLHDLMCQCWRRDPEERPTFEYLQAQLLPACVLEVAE
- assayComment: Inhibitory action against tyrosine-specific protein kinase activity
pIC50: −log10 of the molar value. Counter-ions that a name gives are not always drawn.
quantityKind: pIC50

INSERT INTO results (compound, cmp, readoutnumber) VALUES
  ('O=c1c(-c2ccc(O)cc2)c(CNC2=NCCS2)oc2cc(O)cc(O)c12', '=', 4.41),
  ('O=c1c(-c2ccc(O)cc2)c(CSCC(O)CO)oc2cc(O)cc(O)c12 (stereo not shown)', '=', 4.99),
  ('O=C(NCCO)c1oc2cc(O)cc(O)c2c(=O)c1-c1ccc(O)cc1', '=', 4.38),
  ('O=C(O)CCSCc1oc2cc(O)cc(O)c2c(=O)c1-c1ccc(O)cc1', '=', 4.59),
  ('COc1ccc(-c2c(CN(C)C)oc3cc(O)cc(O)c3c2=O)cc1 [Example 2, hydrochloride]', '<', 3.53),
  ('COCCOC(=O)c1oc2cc(O)cc(O)c2c(=O)c1-c1ccc(O)cc1', '=', 4.79),
  ('CCOC(=O)C(=O)Oc1ccc(-c2c(C(=O)OCC)oc3cc(O)cc(O)c3c2=O)cc1', '=', 5.65),
  ('COc1ccc(-c2c(CNCCO)oc3cc(O)cc(O)c3c2=O)cc1.Cl [Example 4, hydrochloride]', '<', 3.60),
  ('CNC(=O)c1oc2cc(O)cc(O)c2c(=O)c1-c1ccc(O)cc1', '=', 4.34),
  ('COc1ccc(-c2c(CNC3CCCCC3)oc3cc(O)cc(O)c3c2=O)cc1 [Example 3, hydrochloride]', '<', 3.60);
